test.target: GlcA(b1-3)GlcNAc
test: glycan array binding signal (z-score within array); higher = stronger binding
conditions.used: glycan notation: IUPAC condensed, linker removed
Only a selection was taken, and the strongest signals are over-represented in it overall.
// values below are reported glycan array binding signal (z-score)

A selection of reference data follows.
rPitB (Streptococcus pneumoniae), A0A0I7U739 (protein) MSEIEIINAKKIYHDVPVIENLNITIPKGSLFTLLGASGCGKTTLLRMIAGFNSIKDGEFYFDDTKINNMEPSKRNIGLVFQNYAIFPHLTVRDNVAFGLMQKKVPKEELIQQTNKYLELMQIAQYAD : 5.72
PNGase F (Flavobacterium meningosepticum) (protein) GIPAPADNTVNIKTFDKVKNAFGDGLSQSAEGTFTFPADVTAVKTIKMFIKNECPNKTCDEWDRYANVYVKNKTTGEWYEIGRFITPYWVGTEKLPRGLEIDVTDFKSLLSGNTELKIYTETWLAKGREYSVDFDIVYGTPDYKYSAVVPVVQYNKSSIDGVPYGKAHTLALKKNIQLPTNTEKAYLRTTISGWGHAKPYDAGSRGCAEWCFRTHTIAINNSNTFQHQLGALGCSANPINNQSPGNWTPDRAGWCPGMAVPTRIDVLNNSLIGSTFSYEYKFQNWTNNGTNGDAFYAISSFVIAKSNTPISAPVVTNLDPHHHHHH : -0.118
SpnanA (Streptococcus pneumoniae), P62575 (protein) MVIEKEDVETNASNGQRVDLSSELDKLKKLENATVHMEFKPDAKAPAFYNLFSVSSATKKDEYFTMAVYNNTATLEGRGSDGKQFYNNYNDAPLKVKPGQWNSVTFTVEKPTAELPKGRVRLYVNGVLSRTSLRSGNFIKDMPDVTHVQIGATKRANNTVWGSNLQIRNLTVYNRALTPEEVQKRS : 6.22

Exercise: Specify glycan array binding signal (z-score) for Epa1to9 (Candida glabrata) (protein) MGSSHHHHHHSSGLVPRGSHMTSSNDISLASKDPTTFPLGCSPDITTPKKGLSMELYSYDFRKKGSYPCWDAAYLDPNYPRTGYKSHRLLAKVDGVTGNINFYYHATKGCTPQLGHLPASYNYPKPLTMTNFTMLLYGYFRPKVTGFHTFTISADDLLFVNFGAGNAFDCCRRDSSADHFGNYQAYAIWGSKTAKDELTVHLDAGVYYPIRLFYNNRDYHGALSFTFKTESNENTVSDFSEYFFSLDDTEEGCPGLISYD and stop.
Key: -0.346
